Tested on: UACC-257 melanoma
Test: NCI tumour cell line growth inhibition, 48 h
Listed here are compounds together with their documented TGI.

Answered examples (4):
compound=COc1cc(C=O)cc(/C=N/c2ccccn2)c1O measurement_target="UACC-257 melanoma" data_value="55.3 µM"
compound="CN(Cc1cnc2c(n1)C(N)=NN(N)N2)c1ccc(C(=O)NC(CCP(=O)(O)O)C(=O)O)cc1 (centres undefined)" measurement_target="UACC-257 melanoma" data_value="> 100 µM"
compound=O=C(CC1=Nc2nnc(CCCCCCCc3nnc4n3C(=O)C(CC(=O)c3ccccc3)=N4)n2C1=O)c1ccccc1 measurement_target="UACC-257 melanoma" data_value="> 100 µM"
compound=C=C1OC(=O)[C@]2([C@@H](/C=C/C)C=CC(=O)[C@H]2O)[C@@H]1O measurement_target="UACC-257 melanoma" data_value="> 100 µM"

Input: // returns reported TGI for input "COc1cc2c(cc1O)NC(=S)[C@@H]1CCCN1C2=O"
Output: > 100 µM

Input: // returns reported TGI for input "COc1ccc2[nH]c(-c3ccccc3)c(/C=C(\C#N)S(=O)(=O)c3ccccc3)c2c1"
Output: 69 µM

Input: Form field: reported TGI of "N=C(N)N=Nc1ccc(NN=C(N)N)c2c1ncc1c2nc2sccn21"
Output: 40.6 µM

Input: # get_value(readout='TGI', item= C=CC1(CC)/C(=N\O)C(CC)(CC)C(=O)N1O (centres undefined) )
Output: > 100 µM

Input: Could you share which TGI value was measured for "CN1CCN(CCCOc2ccc3nc(Nc4cc(Cl)cc(Cl)c4)ccc3c2)CC1" ?
Output: 3.85 µM

Input: Report TGI for "O=C1Nc2ccccc2C1=Nc1ccc(S(=O)(=O)Nc2nccs2)cc1" please.
Output: > 100 µM

Input: Need TGI of "Cc1cc(N(CCC#N)CCC#N)ccc1/C=C\C(=O)Nc1ccccc1" , thanks.
Output: > 100 µM

Input: Query: TGI; subject: "C1CSCCCSCCCSCCCSCCCSC1"
Output: 97.2 µM

====

Test system: BT-549 breast
Test: NCI tumour cell line growth inhibition, 48 h
property name: TGI

Study these solved cases before continuing.
compound=CN(C)CCCNC(=O)N/N=C/c1ccc([N+](=O)[O-])cc1 data_value="> 100 µM"
compound=C[N+](C)(CCNC(=O)c1cccc2cc3ccccc3nc12)Cc1ccc([N+](=O)[O-])cc1 data_value="> 100 µM"
compound=CCN(CC)Cc1cc(Nc2c3ccccc3nc3c4ccccc4n(C)c23)cc(CN(CC)CC)c1O data_value="11.1 µM"
compound=COc1cc(C[C@@H](C)N)cc(OC)c1 data_value="> 100 µM"
compound="CSc1ncc2c(n1)-c1ccccc1OC2N1CCCCC1 (stereo not given)" data_value="86.2 µM"

Input: State its TGI on BT-549 breast: CN1C2CCC1CC(CC(=O)NC(c1ccc(F)cc1)c1ccc(F)cc1)C2 (stereo not given)
Output: > 100 µM

Input: What reported TGI corresponds to CC(=O)OC1CC2(C)C(OC(C)=O)CC1C2(C)C (stereo not given) on BT-549 breast?
Output: > 100 µM

Input: Reported TGI for BT-549 breast, given O=C(O)CNC(=O)C(CS)Cc1ccccc1 (stereo not given) ?
Output: > 25 µM

Input: Request - read-out TGI | tested on BT-549 breast | compound "Clc1ccc(-c2cc(-c3cc(-c4ccc(Cl)cc4)n[nH]3)[nH]n2)cc1"
Output: > 100 µM

Input: What measured TGI is associated with CN(Cc1cnc2c(n1)C(N)=NN(N)N2)c1ccc(C(=O)NC(CCP(=O)(O)O)C(=O)O)cc1 (stereo not given) on BT-549 breast?
Output: > 89.6 µM

====

TGI reference
Test system: A549 NSCLC
Test: NCI tumour cell line growth inhibition, 48 h

A selection of reference data follows.
compound=O=C(Oc1ccc(S(=O)(=O)F)cc1F)c1ccccc1Cl measurement_target="A549 NSCLC" data_value="> 100 µM"
compound=COc1cc2ncn(-c3cc(O[C@H](C)c4ccccc4Cl)c(C(N)=O)s3)c2cc1OC measurement_target="A549 NSCLC" data_value="> 14.4 µM"
compound=Cc1cc2[nH]c(Cl)c(/C=C3\C(=O)Nc4ccccc43)c2cc1O measurement_target="A549 NSCLC" data_value="21.6 µM"
compound=O=c1c2ccc3cccc4c(=O)c5ccc6cccc1c6c5-c2c34 measurement_target="A549 NSCLC" data_value="> 50 µM"
compound="CCc1ccc(CNCC(O)c2ccccc2)cc1 (stereo unspecified)" measurement_target="A549 NSCLC" data_value="> 100 µM"
compound=CCOC(=O)c1sc2nc(SC)nc3c2c1NCN3C1CC1 measurement_target="A549 NSCLC" data_value="> 100 µM"
compound=O=c1c2cc([N+](=O)[O-])ccc2[nH]n1Cc1ccccn1 measurement_target="A549 NSCLC" data_value="> 100 µM"
compound=CCN(CC)Cc1cc(Nc2c3ccccc3nc3c4ccccc4n(C)c23)cc(CN(CC)CC)c1O measurement_target="A549 NSCLC" data_value="31.9 µM"
compound=CCCCc1ccc(Nc2cc(=O)n(C)c(=O)[nH]2)cc1 measurement_target="A549 NSCLC" data_value="> 100 µM"
compound=COc1cc2c(cc1O)NC(=S)[C@@H]1CCCN1C2=O measurement_target="A549 NSCLC" data_value="> 100 µM"

Alright, here's another compound for you.
Input: Please look up its TGI: "Nc1ccc2c(c1)C(=O)N(OS(=O)(=O)c1ccccc1)C2=O"
Output: > 100 µM

====

Reported values of TGI for individual entries
System: K-562 leukemia
Assay: NCI tumour cell line growth inhibition, 48 h

Observe how each entry below is paired with its result.
compound=CN1CCN([C@H]2C[C@H]3[C@@H]4CC=C5C[C@@H](N6CCCC6)CC[C@]5(C)[C@H]4CC[C@]3(C)[C@H]2O)CC1 measurement_target="K-562 leukemia" property_name=TGI data_value="34.2 µM"
compound=[N-]=[N+]=Nc1ccccc1Oc1ccccc1 measurement_target="K-562 leukemia" property_name=TGI data_value="> 100 µM"
compound=O=C1c2ccccc2-c2nnc(-c3ccc(Br)cc3)cc21 measurement_target="K-562 leukemia" property_name=TGI data_value="> 100 µM"
compound=COc1ccc(NC(=O)/C(Cc2nc3ccccc3[nH]c2=O)=N\O)c(OC)c1 measurement_target="K-562 leukemia" property_name=TGI data_value="> 100 µM"
compound=O=C1/C(=C/c2cc3c(=O)c4ccccc4sc3s2)NC(=S)N1c1ccccc1 measurement_target="K-562 leukemia" property_name=TGI data_value="> 100 µM"

Input: Fill blank: measured TGI of the compound C=CC1(CC)/C(=N\O)C(CC)(CC)C(=O)N1O (stereo not drawn) is ____.
Output: > 100 µM

Input: Form field: reported TGI of "COC(=O)c1cc(OC(C)=O)c2c(OC)ccc(OC)c2c1"
Output: > 100 µM

Input: Could you share which TGI value was measured for Nc1nc2c(c3ncccc13)C(c1cccc(Br)c1)Cc1ncccc1-2 (stereo not drawn) ?
Output: > 100 µM

Input: Dear colleague, I am looking for the recorded TGI of the following compound: "COc1cc(S(=O)(=O)Nc2nc(-c3ccc(N=Cc4cccs4)cc3)cs2)ccc1Cl"
Output: > 100 µM

Input: Can you look up the measured TGI of CN1C2CCC1CC(CC(=O)NC(c1ccc(F)cc1)c1ccc(F)cc1)C2 (stereo not drawn) for me?
Output: > 100 µM

Input: Quick one: TGI for "COc1ccc(C(=O)c2cc(OC)c3c(c2)OCO3)cc1O" ?
Output: > 100 µM

====

System: NCI-H226 lung
Test: NCI tumour cell line growth inhibition, 48 h
property name: TGI

Solved cases (8 shown):
compound=COc1ccc(C(=O)c2cc(OC)c3c(c2)OCO3)cc1O data_value="8.81 µM"
compound="CCc1ccc(CNCC(O)c2ccccc2)cc1 (stereo not given)" data_value="> 100 µM"
compound=Clc1ccccc1/C=C\C1(c2ccccc2)OCCO1 data_value="44.3 µM"
compound=C[N+](C)(CCNC(=O)c1cccc2cc3ccccc3nc12)Cc1ccc([N+](=O)[O-])cc1 data_value="> 100 µM"
compound="O=C1CC(=O)NC(=NN2C(=O)CSC2c2ccccc2)N1 (stereo not given)" data_value="> 100 µM"
compound=C=C1OC(=O)[C@]2([C@@H](/C=C/C)C=CC(=O)[C@H]2O)[C@@H]1O data_value="> 100 µM"
compound=O=C1/C(=C/c2cc3c(=O)c4ccccc4sc3s2)NC(=S)N1c1ccccc1 data_value="> 100 µM"
compound=Fc1cnc(NC2CC2)nc1-c1cnc2ccc(N3CCOCC3)cn12 data_value="1.39 µM"

Input: # lookup: TGI of "CN1CCN([C@H]2C[C@H]3[C@@H]4CC=C5C[C@@H](N6CCCC6)CC[C@]5(C)[C@H]4CC[C@]3(C)[C@H]2O)CC1"
Output: > 100 µM

Input: Look up TGI: Cc1cc(O)c(C=O)c2c1C(=O)Oc1c(CO)c(O)c3c(c1O2)C(O)OC3=O (stereo not given)
Output: > 100 µM
